- target-under-test: Receptor tyrosine-protein kinase erbB-2 (Homo sapiens)
- Sequence (P04626 whole entry, the tested form may be a part): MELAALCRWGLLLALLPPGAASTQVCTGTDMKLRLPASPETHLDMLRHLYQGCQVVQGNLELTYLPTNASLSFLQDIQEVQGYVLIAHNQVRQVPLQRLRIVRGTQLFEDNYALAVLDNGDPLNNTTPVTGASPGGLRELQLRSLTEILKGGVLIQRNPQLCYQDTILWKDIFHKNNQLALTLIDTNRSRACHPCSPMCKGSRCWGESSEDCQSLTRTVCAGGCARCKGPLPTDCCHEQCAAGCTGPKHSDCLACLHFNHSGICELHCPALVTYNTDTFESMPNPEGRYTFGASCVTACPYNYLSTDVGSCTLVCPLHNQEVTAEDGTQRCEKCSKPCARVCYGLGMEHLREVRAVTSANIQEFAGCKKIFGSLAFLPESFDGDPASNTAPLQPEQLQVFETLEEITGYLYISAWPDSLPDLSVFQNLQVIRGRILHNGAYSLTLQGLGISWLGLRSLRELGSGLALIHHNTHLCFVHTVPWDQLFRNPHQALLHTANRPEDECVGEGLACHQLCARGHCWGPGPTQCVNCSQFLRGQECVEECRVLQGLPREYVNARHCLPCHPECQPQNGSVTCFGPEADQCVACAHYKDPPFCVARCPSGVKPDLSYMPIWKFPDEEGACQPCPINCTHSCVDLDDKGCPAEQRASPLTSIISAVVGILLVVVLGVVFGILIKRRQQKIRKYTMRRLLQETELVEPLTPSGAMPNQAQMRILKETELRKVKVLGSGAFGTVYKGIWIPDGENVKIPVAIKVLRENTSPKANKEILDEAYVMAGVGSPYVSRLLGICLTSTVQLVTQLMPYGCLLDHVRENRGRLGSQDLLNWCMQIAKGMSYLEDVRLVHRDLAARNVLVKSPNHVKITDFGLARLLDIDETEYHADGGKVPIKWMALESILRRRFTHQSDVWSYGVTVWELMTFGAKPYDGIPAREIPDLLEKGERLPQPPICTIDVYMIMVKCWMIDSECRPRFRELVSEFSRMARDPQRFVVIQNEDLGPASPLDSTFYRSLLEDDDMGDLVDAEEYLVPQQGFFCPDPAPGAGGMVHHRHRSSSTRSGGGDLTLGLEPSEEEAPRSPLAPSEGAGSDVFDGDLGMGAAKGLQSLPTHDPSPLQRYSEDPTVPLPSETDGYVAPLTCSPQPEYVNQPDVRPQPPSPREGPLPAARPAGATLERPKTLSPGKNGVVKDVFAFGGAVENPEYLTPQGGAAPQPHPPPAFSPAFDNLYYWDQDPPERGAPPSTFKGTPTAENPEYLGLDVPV
- measurement-notes: Inhibition of C-terminal His6-tagged HER2 (703 to 1029 residues) (unknown origin) expressed in Sf9 insect cells using TK as substrate preincubated for 30 mins followed by substrate addition and measured after 60 mins in presence of XL665-labeled streptavidin by HTRF assay
endpoint-label: IC50 (nM)

[I] C=CC(=O)Nc1cc(-c2c[nH]c3ncnc(Nc4ccc(OCc5ccccn5)c(Cl)c4)c23)ccc1OCCCO
[II] C=CC(=O)Nc1cccc(-c2c(-c3ccc(N4CCN(C)CC4)cc3)[nH]c3ncnc(OCC(C)C)c23)c1
Task item: Compare reported IC50 values for I and II . Which is lower? State the label of the item chosen.
Reply: I

###

- measurement-notes: Apparent permeability across basolateral side to apical side in human Caco-2 cells at 5 uM after 2 hrs by transwell assay
- Type: ADME, cell-based
- stated-conditions: read-out: permeability
endpoint-label: Papp B→A at 2 h, 5 µM (×10⁻⁶ cm/s)

[A] CS(=O)(=O)CCNCc1ccc(-c2ccc3ncnc(Nc4ccc(OCc5cccc(F)c5)c(Cl)c4)c3c2)o1
[B] CN(C)C/C=C/C(=O)Nc1cc2c(Nc3ccc(F)c(Cl)c3)ncnc2cc1O[C@H]1CCOC1
Task item: Sorting ascending by Papp B→A at 2 h, 5 µM, which comes first: A or B ? Return value: the label identifying the chosen record.
Reply: A

[a] CCOc1cc2ncc(C#N)c(Nc3ccc(OCc4ccccn4)c(Cl)c3)c2cc1NC(=O)/C=C/CN(C)C
[b] C=CC(=O)N1CCC(Oc2cc3c(Nc4ccc(Cl)c(Cl)c4F)ncnc3cc2OC)CC1
Task item: Hi team, can someone confirm which has the larger Papp B→A at 2 h, 5 µM: a or b ? Thanks. Output the label that corresponds to your choice.
Reply: b

###

- target-under-test: Epidermal growth factor receptor (Homo sapiens, UniProt P00533, L858R)
- Sequence (P00533 25-1210 L858R limits assumed): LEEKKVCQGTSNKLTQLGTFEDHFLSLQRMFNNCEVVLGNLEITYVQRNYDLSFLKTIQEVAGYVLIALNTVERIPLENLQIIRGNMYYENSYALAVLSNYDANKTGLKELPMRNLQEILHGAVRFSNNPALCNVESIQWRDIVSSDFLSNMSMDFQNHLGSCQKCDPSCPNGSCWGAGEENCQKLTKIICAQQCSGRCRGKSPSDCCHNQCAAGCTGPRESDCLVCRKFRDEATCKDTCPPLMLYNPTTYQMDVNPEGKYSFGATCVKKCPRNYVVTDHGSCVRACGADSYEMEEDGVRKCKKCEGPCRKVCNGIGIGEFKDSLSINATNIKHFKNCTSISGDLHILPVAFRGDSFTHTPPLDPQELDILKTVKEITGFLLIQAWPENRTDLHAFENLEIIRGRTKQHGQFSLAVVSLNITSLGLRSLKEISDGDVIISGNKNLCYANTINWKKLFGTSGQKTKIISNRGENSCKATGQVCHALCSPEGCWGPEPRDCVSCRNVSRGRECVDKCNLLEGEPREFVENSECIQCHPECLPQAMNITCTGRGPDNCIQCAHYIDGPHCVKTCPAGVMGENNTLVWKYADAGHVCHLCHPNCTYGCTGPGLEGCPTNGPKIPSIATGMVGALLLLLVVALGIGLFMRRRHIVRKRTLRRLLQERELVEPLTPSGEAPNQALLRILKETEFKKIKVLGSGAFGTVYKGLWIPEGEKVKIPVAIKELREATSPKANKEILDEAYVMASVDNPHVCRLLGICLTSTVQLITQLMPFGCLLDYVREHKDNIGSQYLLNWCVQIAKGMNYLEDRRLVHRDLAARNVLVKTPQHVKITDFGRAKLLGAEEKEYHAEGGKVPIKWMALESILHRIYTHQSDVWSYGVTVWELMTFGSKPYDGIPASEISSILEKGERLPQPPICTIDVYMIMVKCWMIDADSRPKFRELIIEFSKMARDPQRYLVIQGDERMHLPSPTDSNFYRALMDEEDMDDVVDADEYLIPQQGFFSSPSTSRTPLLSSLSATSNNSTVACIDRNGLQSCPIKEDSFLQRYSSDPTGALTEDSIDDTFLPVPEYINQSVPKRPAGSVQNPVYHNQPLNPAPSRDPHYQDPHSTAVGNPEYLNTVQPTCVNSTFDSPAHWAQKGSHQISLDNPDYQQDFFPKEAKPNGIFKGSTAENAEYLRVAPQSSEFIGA
- measurement-notes: Inhibition of human N-terminal GST-tagged EGFR L858R mutant (669 to 1210 residues) expressed in baculovirus infected Sf9 insect cells using TK as substrate preincubated for 30 mins followed by substrate addition and measured after 15 mins by HTRF assay
Collected IC50 values appear next to each entry.
Please give a number only; it is taken to be in nM.

C=CC(=O)Nc1cccc(-c2c[nH]c3ncnc(Nc4ccc(CN5C(=O)c6ccccc6C5=O)cc4)c23)c1    0.2
C=CC(=O)Nc1cc(-c2c[nH]c3ncnc(Nc4ccc5c(cnn5Cc5ccccc5)c4)c23)ccc1OCCO    0.1
C=CC(=O)Nc1cc(-c2c[nH]c3ncnc(Nc4ccc(OCc5ccccn5)c(Cl)c4)c23)ccc1OCCN(C)C    0.1

Kindly review the next compound as well.
Task item: Query (compound): C=CC(=O)Nc1cccc(-c2c[nH]c3ncnc(Nc4ccc(OCc5ccccn5)c(Cl)c4)c23)c1 ; field requested: IC50
Reply: 0.1

###

- measurement-notes: Stability of compound in mouse plasma assessed as parent compound remaining at 5 uM measured for 1 hr by LC-MS analysis
- Assay type: ADME, cell-free
- stated-conditions: read-out: Stabilty
endpoint-label: remaining at 1 h, 5 µM (%)

C=CC(=O)Nc1cc(-c2c[nH]c3ncnc(Nc4ccc5c(cnn5Cc5ccccc5)c4)c23)ccc1OCCO    88.4
CCOc1cc2ncc(C#N)c(Nc3ccc(OCc4ccccn4)c(Cl)c3)c2cc1NC(=O)/C=C/CN(C)C    97.4
CN(C)C/C=C/C(=O)Nc1cc2c(Nc3ccc(F)c(Cl)c3)ncnc2cc1O[C@H]1CCOC1    101
C=CC(=O)Nc1cccc(-c2c[nH]c3ncnc(Nc4ccc(CN5C(=O)c6ccccc6C5=O)cc4)c23)c1    81.3
C=CC(=O)Nc1cc(-c2c[nH]c3ncnc(Nc4ccc(OCc5ccccn5)c(Cl)c4)c23)ccc1OCCN(C)C    0.8
C=CC(=O)Nc1cccc(-c2c[nH]c3ncnc(Nc4ccc(OCc5ccccn5)c(Cl)c4)c23)c1    49
CS(=O)(=O)CCNCc1ccc(-c2ccc3ncnc(Nc4ccc(OCc5cccc(F)c5)c(Cl)c4)c3c2)o1    95.9

###

Quick reference: solubility kinetic at 2 h of the listed items.
- measurement-notes: Solubility of compound in aqueous buffer at pH 7.4 after 120 mins by turbidometric assay
- Assay type: physicochemical
// note: answer is a bare numeric in µM

Examples with their reported solubility kinetic at 2 h follow.
CS(=O)(=O)CCNCc1ccc(-c2ccc3ncnc(Nc4ccc(OCc5cccc(F)c5)c(Cl)c4)c3c2)o1 [LAPATINIB]    3
C=CC(=O)Nc1cccc(-c2c[nH]c3ncnc(Nc4ccc(CN5C(=O)c6ccccc6C5=O)cc4)c23)c1    30

Task item: Given the entry C=CC(=O)Nc1cc(-c2c[nH]c3ncnc(Nc4ccc(OCc5ccccn5)c(Cl)c4)c23)ccc1OCCN(C)C , report its measured solubility kinetic at 2 h.
Reply: 100

Task item: Now try C=CC(=O)Nc1cccc(-c2c[nH]c3ncnc(Nc4ccc(OCc5ccccn5)c(Cl)c4)c23)c1 .
Reply: 30

Task item: Next compound: C=CC(=O)Nc1cc(-c2c[nH]c3ncnc(Nc4ccc5c(cnn5Cc5ccccc5)c4)c23)ccc1OCCO
Reply: 30

###

Recorded IC50 for the following compounds
- target-under-test: Epidermal growth factor receptor (Homo sapiens)
Respond with the bare value in nM.

Previously resolved entries follow.
C=CC(=O)Nc1cc(-c2c[nH]c3ncnc(Nc4ccc(OCc5ccccn5)c(Cl)c4)c23)ccc1OCCN(C)C    0.09
C=CC(=O)Nc1cc(-c2c[nH]c3ncnc(Nc4ccc5c(cnn5Cc5ccccc5)c4)c23)ccc1OCCO    0.07
C=CC(=O)Nc1cccc(-c2c[nH]c3ncnc(Nc4ccc(CN5C(=O)c6ccccc6C5=O)cc4)c23)c1    0.4

Would you kindly look at the next entry?
Task item: Which measured IC50 value corresponds to C=CC(=O)Nc1cccc(-c2c[nH]c3ncnc(Nc4ccc(OCc5ccccn5)c(Cl)c4)c23)c1 ?
Reply: 0.08

###

- target-under-test: UniProt P04626
- measurement-notes: Inhibition of C-terminal His6-tagged HER2 (703 to 1029 residues) (unknown origin) expressed in Sf9 insect cells using TK as substrate preincubated for 30 mins followed by substrate addition and measured after 60 mins in presence of XL665-labeled streptavidin by HTRF assay
pIC50: −log10 of the molar value.
endpoint-label: pIC50

[I] C=CC(=O)Nc1cccc(-c2c(-c3ccc(N4CCN(C)CC4)cc3)[nH]c3ncnc(OCC)c23)c1
[II] C=CC(=O)Nc1cccc(-c2c[nH]c3ncnc(Nc4ccc(OC(c5ccccc5)c5ccccc5)cc4)c23)c1
Task item: Given the two records I and II , choose the one whose pIC50 value is lower. Mark your selection by writing its label.
Reply: II

[1] C=CC(=O)Nc1cccc(-c2c(-c3ccc(N4CCN(C)CC4)cc3)[nH]c3ncnc(Nc4ccc(O)cc4)c23)c1
[2] C=CC(=O)Nc1cccc(-c2c[nH]c3ncnc(Nc4ccc(Cc5ccccc5)cc4)c23)c1
Task item: Smaller pIC50 value, 1 vs 2 ? Bench note: the answer is the label of the chosen record.
Reply: 2

[A] C=CC(=O)Nc1cc(-c2c[nH]c3ncnc(Nc4ccc(CN5C(=O)c6ccccc6C5=O)cc4)c23)ccc1OCCO
[B] C=CC(=O)Nc1cccc(-c2c(-c3ccc(N4CCN(C)CC4)cc3)[nH]c3ncn(CC)c(=O)c23)c1
[C] C=CC(=O)Nc1cccc(-c2c(-c3ccc(N4CCN(C)CC4)cc3)[nH]c3ncn(C(C)C)c(=O)c23)c1
[D] C=CC(=O)Nc1cccc(-c2c(-c3ccc(N4CCN(C)CC4)cc3)[nH]c3ncnc(Nc4ccc(OC(c5ccccc5)c5ccccc5)cc4)c23)c1
Task item: Order field: pIC50 | Direction: descending (largest first) Put the labels in the order asked and list them.
Reply: D, A, B, C

[A] C=CC(=O)Nc1cccc(-c2c[nH]c3ncnc(Nc4ccc5c(cnn5Cc5ccccc5)c4)c23)c1
[B] C=CC(=O)Nc1cccc(-c2c(-c3ccc(N4CCN(C)CC4)cc3)[nH]c3ncnc(Nc4ccc(OCc5cccc(F)c5)c(Cl)c4)c23)c1
Task item: Please indicate which entry, A or B , has the lower recorded pIC50 value. Provide the label of your selected option as the answer.
Reply: B

###

- measurement-notes: Intrinsic clearance in human liver microsomes at 3 uM measured up to 50 mins by LC-MS analysis
- Type: ADME, Microsome
- stated-conditions: read-out: CLH
endpoint-label: microsomal CLint at 3 µM (µL/min/mg)

C=CC(=O)N1CCC(Oc2cc3c(Nc4ccc(Cl)c(Cl)c4F)ncnc3cc2OC)CC1 [POZIOTINIB]    22

[I] CS(=O)(=O)CCNCc1ccc(-c2ccc3ncnc(Nc4ccc(OCc5cccc(F)c5)c(Cl)c4)c3c2)o1 [LAPATINIB]
[II] CN(C)C/C=C/C(=O)Nc1cc2c(Nc3ccc(F)c(Cl)c3)ncnc2cc1O[C@H]1CCOC1 [AFATINIB]
[III] CCOc1cc2ncc(C#N)c(Nc3ccc(OCc4ccccn4)c(Cl)c3)c2cc1NC(=O)/C=C/CN(C)C [NERATINIB]
Task item: Thanks in advance: please rank these 3 entries by microsomal CLint at 3 µM, highest to lowest. Response format: the labels, sorted as the prompt asks.
Reply: III, I, II
(III: 42 µL/min/mg, I: 16.7 µL/min/mg, II: 1.4 µL/min/mg)
